- ASSAY: Toxicity in hen chorioallantoic membrane assessed as maximum tolerable concentration causing no morphological changes
- Design: species or system Gallus gallus
- CONDITION LABEL: chicken, read-out: Activity
QUANTITY KIND: MNTC

Suppose we examine the compound CC(C)CCOC(=O)/C=C/c1ccc(O)c(O)c1 ; what MNTC value has been reported? 50 µg/mL

Another: COc1cc(/C=C/C(=O)OCCC(C)C)ccc1O [ISOPENTYL FERULATE] 400 µg/mL

Another: O=C(/C=C/c1ccc(O)c(O)c1)OCc1ccccc1 [BENZYL CAFFEATE] 50 µg/mL

Another: COc1cc(/C=C/C(=O)OCCc2ccccc2)ccc1O 50 µg/mL

Another: O=C(/C=C/c1ccc(O)c(O)c1)OCCc1ccccc1 [CAFFEIC ACID PHENETHYL ESTER] 50 µg/mL

Another: COc1cc(/C=C/C(=O)OCc2ccccc2)ccc1O [BENZYL FERULATE] 50 µg/mL
